Hello, the source for this data is the supplement of paper PMC10567573, in case you need it.

B1: ANKRD40 (parent)
chain: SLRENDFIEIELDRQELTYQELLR

- Variants of: B1
- Measurement protocol: protein stability index of a GFP-peptide fusion (GPS, HEK-293T) (PSI 1-6); higher = more stable;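 also: lentivirally expressed fusions sorted by FACS into six bins by GFP to DsRed ratio, PSI derived from sequencing read proportions per bin multiplied by bin number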
- Condition description: c terminus: a fixed tail appended
Catalogue of variants with associated protein stability index

SLRENDFIEIDLDRQELTYQELLR [E11D] :: 3.59

Next variant, please.
Fill in: protein stability index of SLRENDFIEIELDRQELDYQELLR [T18D] is ___
3.71
